# TARGET ENTITY: T1, Peptide 8: Biotin-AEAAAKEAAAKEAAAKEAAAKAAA-Tyr-acid (N-terminal biotin; C-terminal acid)
# T1 construct: control peptide without PC
# T1 peptide: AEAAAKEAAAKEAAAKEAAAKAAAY
# TEST METHOD NOTES: scFv ELISA
MEASURE: OD450 (OD450)

BINDER	MEASURE	UNIT ABBREVIATION	REPORTED RESULT
PcOxP_DB02_G09 (scFv, V domains shown, scFv in periplasmic extract) VH: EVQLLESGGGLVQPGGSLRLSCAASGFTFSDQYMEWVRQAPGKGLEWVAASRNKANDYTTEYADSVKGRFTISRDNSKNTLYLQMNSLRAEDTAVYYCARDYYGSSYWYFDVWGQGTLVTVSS VL: DIQMTQSPSSLSASVGDRVTITCTASESLYSSKHKVHYLAWYQQKPGKAPKLLIYGASNRPIGVPSRFSGSGSGTDFTLTISSLQPEDFATYYCAQFYSYPLTFGGGTKVEIK	OD450	OD450	0.04
PcOxP_DB03_D07 (scFv, V domains shown, scFv in periplasmic extract) VH: EVQLLESGGGLVQPGGSLRLSCAASGFTFSDVYMEWVRQAPGKGLEWVAASRNKANDYTTEYADSVKGRFTISRDNSKNTLYLQMNSLRAEDTAVYYCARDYYGSSYWYFDVWGQGTLVTVSS VL: DIQMTQSPSSLSASVGDRVTITCTASESLYSSKHKVHYLAWYQQKPGKAPKLLIYGASNRYSGVPSRFSGSGSGTDFTLTISSLQPEDFATYYCAQFYKYPLTFGGGTKVEIK	OD450	OD450	0.05
